System: MALME-3M melanoma
Test Name: NCI-60 one-dose screen, 48 h (100 = growth as untreated, 0 = no growth, -100 = all killed)
Assay Conditions: 10 µM unless noted
The panel holds about 83,000 compounds, 20% with a hit somewhere; the sample as a whole holds those more often.
Decision: growth compared against 50%; not below it gives met, below it gives not met.

>  <Chemical Structure>
O=C(/C=C/c1cccc(Cl)c1)c1ccccc1

>  <Target Entity>
MALME-3M melanoma

>  <Label Class>
met

$$$$
>  <Chemical Structure>
N#CSCc1ccc(CSC#N)c(Cl)c1

>  <Target Entity>
MALME-3M melanoma

>  <Label Class>
met

$$$$

Query string: Say whether O=C1c2ccccc2C(=O)c2sc(Nc3cccc(Cl)c3)nc21 shows growth of 50% or more.
Result string: not met

Query string: Say whether O=C1c2ccccc2C(=O)c2sc(Nc3ccc(Cl)cc3)nc21 shows growth of 50% or more.
Result string: not met

Query string: Say whether N#CSCC(=O)c1ccc(Cl)cc1 shows growth of 50% or more.
Result string: met

---

Tested on: SF-295 CNS
Test Name: NCI-60 one-dose screen, 48 h (100 = growth as untreated, 0 = no growth, -100 = all killed)
Assay Conditions: 10 µM unless noted
This is part of a sample that, as a whole, favours compounds with a hit. Of some 83,000 tested, about 20% had one in any assay.
Reported growth values are given for each entry in this list.
Please state the figure in %; there is no need to write the unit.

Below: 3 compounds and their reported growth.
>  <Chemical Structure>
CNc1ccc(N)cc1

>  <Target Entity>
SF-295 CNS

>  <Unit Info>
%

>  <Reading>
108

$$$$
>  <Chemical Structure>
CC(C)(C)c1ccc(O)c(C2CCCCC2)c1

>  <Target Entity>
SF-295 CNS

>  <Unit Info>
%

>  <Reading>
130

$$$$
>  <Chemical Structure>
CCCCCCCCCCCCCCCCOP(=O)([O-])OCC[N+](C)(C)C

>  <Target Entity>
SF-295 CNS

>  <Unit Info>
%

>  <Reading>
28

$$$$

# evaluate next
Query string: Requested read-out: growth. Entry: Cc1ccc(N=C=C(c2ccccc2)c2ccccc2)cc1
Result string: 98

---

Test system: NCI-H460 lung
Test Name: NCI-60 one-dose screen, 48 h (100 = growth as untreated, 0 = no growth, -100 = all killed)
Assay Conditions: 10 µM unless noted
The panel holds about 83,000 compounds, 20% with a hit somewhere; the sample as a whole holds those more often.
Decision: growth compared against 30%; not below it gives True, below it gives False.

>  <Compound>
Cn1c2c(c3ccccc31)CCN1C[C@@H]3CCCC[C@H]3C[C@@H]21

>  <Label Class>
False

$$$$
>  <Compound>
CCCCCCCCCCCCCCNCc1ccccc1

>  <Label Class>
True

$$$$
>  <Compound>
S=C(N/N=C/c1ccccn1)Nc1ccccn1

>  <Label Class>
False

$$$$
>  <Compound>
Cc1ccc(N=C=C(c2ccccc2)c2ccccc2)cc1

>  <Label Class>
True

$$$$
>  <Compound>
O=[N+]([O-])c1ccc(N=Nc2ccc(O)cc2O)cc1

>  <Label Class>
True

$$$$

Query string: Say whether N#CSCC(=O)c1ccc(Cl)cc1 shows growth of 30% or more.
Result string: True

Query string: Say whether O=C(/C=C\c1cc(Br)ccc1O)/C=C/c1cc(Br)ccc1O shows growth of 30% or more.
Result string: False

The reported numbers originate from PubChem BioAssay (NCI).
